Would you mind telling me the reported log10 of TGI of each entry?
- Test system: NCI-H23 lung
- protocol-description: NCI tumour cell line growth inhibition, 48 h
Please interpret these as log10 of TGI where TGI is in µM.

QUERY: Recorded log10 of TGI for COc1cc(NC(=O)c2cc3ccccc3cc2O)c(OC)cc1Cl , please?
RESULT: 0.85

QUERY: Recorded log10 of TGI for COC(=O)[C@]12CC[C@@H](C)[C@H](C)[C@@H]1C1=CC[C@@H]3[C@@]4(C)C(C=O)=C[C@@](C)(COC(=O)c5ccco5)C4=CC[C@@]3(C)[C@]1(C)CC2 , please?
RESULT: 1.41

QUERY: Recorded log10 of TGI for CNC(=O)NCCCCC(NC(=O)OCc1ccccc1)C(=O)OCc1ccccc1 (stereo unspecified) , please?
RESULT: 1.83

QUERY: Recorded log10 of TGI for COc1ccc(/C=N/NC(=O)CSc2nc(-c3ccccc3)c(-c3ccccc3)[nH]2)cc1OC , please?
RESULT: 1.88

QUERY: Recorded log10 of TGI for CCOC(=O)/C=C(/C(=O)OCC)n1cc(C)c(=O)[nH]c1=O , please?
RESULT: 1.26

QUERY: Recorded log10 of TGI for COc1ncc(-c2ccc3ncnc(Nc4cccc(Cl)c4)c3c2)cc1NS(C)(=O)=O , please?
RESULT: 0.94

QUERY: Recorded log10 of TGI for Cc1cc(O)cc(-c2nn(C)cc2-c2cc(N3CCOCC3)nc(-c3cccnc3)n2)c1 , please?
RESULT: 1.78

All figures here come from PubChem BioAssay (NCI).
